# Target: Factor X (FX), P00742
# Sequence (P00742 whole entry, looked up): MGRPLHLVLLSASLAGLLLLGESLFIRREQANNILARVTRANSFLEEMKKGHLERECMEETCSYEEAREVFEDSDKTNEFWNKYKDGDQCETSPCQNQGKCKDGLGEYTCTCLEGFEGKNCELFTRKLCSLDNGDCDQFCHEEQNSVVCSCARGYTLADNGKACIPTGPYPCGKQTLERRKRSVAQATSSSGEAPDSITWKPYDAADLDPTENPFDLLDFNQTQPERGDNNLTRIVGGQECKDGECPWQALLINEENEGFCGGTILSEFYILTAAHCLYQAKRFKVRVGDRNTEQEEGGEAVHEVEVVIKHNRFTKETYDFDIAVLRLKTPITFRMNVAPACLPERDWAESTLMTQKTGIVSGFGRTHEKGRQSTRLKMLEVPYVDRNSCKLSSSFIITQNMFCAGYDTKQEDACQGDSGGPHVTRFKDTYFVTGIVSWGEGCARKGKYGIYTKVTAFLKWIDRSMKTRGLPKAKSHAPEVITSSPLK
proteins and their reported kcat of FX activation by FIXa in the Xase complex (FVIIIa, PC/PS vesicles, Ca2+)
I only need the number, in s⁻¹, no unit after it.

Protein: FIXa-Y155F/K247N/N249S/R318Y/R403E/E410N (protein) chain 1: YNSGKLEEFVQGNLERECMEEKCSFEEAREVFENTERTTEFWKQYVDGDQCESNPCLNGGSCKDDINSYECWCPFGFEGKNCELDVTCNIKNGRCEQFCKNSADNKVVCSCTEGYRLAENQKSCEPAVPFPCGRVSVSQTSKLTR chain 2: VVGGEDAKPGQFPWQVVLNGKVDAFCGGSIVNEKWIVTAAHCVETGVKITVVAGEHNIEETEHTEQNRSVIRIIPHHNYNAAINKYNHDIALLELDEPLVLNSYVTPICIADKEYTNIFLKFGSGYVSGWGRVFHKGYSALVLQYLRVPLVDRATCLRSTKFTIYNNMFCAGFHEGGRDSCQGDSGGPHVTEVEGTSFLTGIISWGEECAMKGKYGIYTKVSEYVNWIKNKTKLT
Recorded result: 1.2

Enquiry: Which kcat of FX activation by FIXa in the Xase complex (FVIIIa, PC/PS vesicles, Ca2+) is reported for this protein? FIXa-K247N/N249S/R338E/R403E/E410N (protein) chain 1: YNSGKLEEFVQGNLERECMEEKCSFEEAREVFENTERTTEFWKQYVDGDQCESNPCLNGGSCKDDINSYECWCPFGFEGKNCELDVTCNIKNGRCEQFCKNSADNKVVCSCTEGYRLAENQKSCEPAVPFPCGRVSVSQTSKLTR chain 2: VVGGEDAKPGQFPWQVVLNGKVDAFCGGSIVNEKWIVTAAHCVETGVKITVVAGEHNIEETEHTEQNRSVIRIIPHHNYNAAINKYNHDIALLELDEPLVLNSYVTPICIADKEYTNIFLKFGSGYVSGWGRVFHKGRSALVLQYLRVPLVDRATCLESTKFTIYNNMFCAGFHEGGRDSCQGDSGGPHVTEVEGTSFLTGIISWGEECAMKGKYGIYTKVSEYVNWIKNKTKLT
Return: 4.8

Measured values drawn from patent US20210230570 for this set.
